System: ACHN renal
Assay: NCI-60 one-dose screen, 48 h
Conditions: 10 µM unless noted
The panel holds about 83,000 compounds, 20% with a hit somewhere; the sample as a whole holds those more often. Calls of active or inactive are those of the source. Rule for the calls: active = growth percent below 10; inactive = the rest.
Classes to choose from: active, inactive

Look over these answered cases.
Query :: Recorded test call requested for COc1cc(C2CC(=O)c3c(C)nn(-c4nc5ccccc5[nH]4)c3C2)cc(OC)c1OC (centres undefined)
Result :: inactive

Query :: Recorded test call requested for CC(=O)OC1Oc2cc(C)c(C)cc2-c2oc(=O)c(-c3cc4ccc(N(C)C)cc4oc3=O)cc21 (centres undefined)
Result :: inactive

Query :: Recorded test call requested for CN(C)C(=O)c1cc2cnc(Nc3ccc(-c4csc5c(=O)cc(N6CCNCC6)oc45)cc3)nc2n1C1CCCC1
Result :: inactive

Next:
Query :: Recorded test call requested for COc1ccc(-c2c(C)noc2-c2ccc(O)cc2O)cc1
Result :: inactive

Query :: Recorded test call requested for C(=N\Nc1nnn(Cc2ccccc2)n1)/c1ccccc1
Result :: inactive

Query :: Recorded test call requested for Cc1cc(Nc2nc(-c3cccnc3)nc3ccccc23)n[nH]1
Result :: inactive

Query :: Recorded test call requested for Cc1ccc2c(c1)C(=O)/C(=C/c1ccc(OCC(=O)c3ccccc3)cc1)O2
Result :: inactive

Query :: Recorded test call requested for COc1ccc(CN2C(=O)/C(=C\c3cc(OC)c(OC)c(OC)c3)c3cc(OC)ccc32)cc1
Result :: active

Query :: Recorded test call requested for CC(=O)O[C@H]1CC[C@]2(C)[C@H]3CC[C@@H]4[C@H]5[C@H](C(C)C)CC[C@]5(C(=O)OCC(CO)(CO)N=C(N)N)CC[C@@]4(C)[C@]3(C)CC[C@H]2C1(C)C
Result :: inactive

---

# key: entry, value: growth
Test system: 786-0 renal
Experiment: NCI-60 one-dose screen, 48 h (100 = growth as untreated, 0 = no growth, -100 = all killed)
Conditions: 10 µM unless noted
This is part of a sample that, as a whole, favours compounds with a hit. Of some 83,000 tested, about 20% had one in any assay.
Please give a number only; it is taken to be in %.

Example entries begin here.
Query :: For the compound CSc1[nH]c2ncnc(N)c2c1C#N , give its reported growth.
Result :: 99.7

Query :: For the compound c1ccc2sc(SCCCn3ccnc3)nc2c1 , give its reported growth.
Result :: 104

Query :: For the compound CCOC(=O)/C=C/c1ccc(C(=O)OCC)[nH]1 , give its reported growth.
Result :: 90.2

Next:
Query :: For the compound CN[C@@]12CC3(C=CC(=O)C=C3)O[C@]1(Cc1ccc(OC)cc1)N(C)C(=O)N2 , give its reported growth.
Result :: 84.2

Query :: For the compound CC(=O)OC1Oc2cc(C)c(C)cc2-c2oc(=O)c(-c3cc4ccc(N(C)C)cc4oc3=O)cc21 (stereo not given) , give its reported growth.
Result :: 74.1

Query :: For the compound CCCCNP1(NCCCC)=NP(NCCCC)(NCCCC)=NP(NCCCC)(NCCCC)=NP(NCCCC)(NCCCC)=N1 , give its reported growth.
Result :: -6.24

Query :: For the compound O=C1/C(=C/c2ccc(Cl)cc2Cl)CN(S(=O)(=O)c2ccccc2)C/C1=C\c1ccc(Cl)cc1Cl , give its reported growth.
Result :: -81.2

Query :: For the compound O=C1c2cccnc2C(=O)c2c1c(C(=O)OCCN1CCCCC1)c1ccccn21 , give its reported growth.
Result :: -45.9

Query :: For the compound CN(C)CC(=O)Nc1ccc(Cn2nnc3c2C(=O)c2nnn(Cc4ccc(NC(=O)CN(C)C)cc4)c2C3=O)cc1 , give its reported growth.
Result :: -76.4

Query :: For the compound C/C(=C(/c1ccc(O)cc1)c1ccc(OCCN2CCCC2)cc1)c1ccccc1 , give its reported growth.
Result :: 57.1

Provenance of the data: PubChem BioAssay (NCI)
